Read-out: Insulin-like growth factor-binding protein 1 (IGFBP1), IGFBP1 (gene 3484)
EXPERIMENT: LTEA_HepaRG_IGFBP1: Life Technologies and Expression Analysis (LTEA) Assay for Insulin-like growth factor-binding protein 1 (IGFBP1) using HepaRG (AID 2283508)
CONDITION PARAMETERS: mRNA level, 48 h; actives raise or lower the signal
Experimental: LTEA_HepaRG is a cell based, multiplexed-readout assay that uses HepaRG, a human liver cell line, with measurements taken at 48 hours after chemical dosing on a 96-well plate.LTEA_HepaRG_IGFBP1 is one of 102 assay component(s) measured in the LTEA HepaRG cell culture assay. It is a marker of Cell proliferation, survival, death.Data from the assay component LTEA_HepaRG_IGFBP1 was analyzed into 1 endpoint. […]
Active and inactive are the calls of the source. Rule for the calls: active = hit-call score of the fitted dose curve at least 0.9, where 1 is the maximum; inactive = score below 0.9.
# valid calls are y = active, n = inactive; nothing else

What was the test verdict on O=[N+]([O-])c1c(Cl)c(Cl)c(Cl)c(Cl)c1Cl ?
n

What was the test verdict on OCCOc1ccccc1 ?
n

What was the test verdict on CCC(C)(C)C(=O)OC1=C(c2ccc(Cl)cc2Cl)C(=O)OC12CCCCC2 ?
n

What was the test verdict on Cc1[nH]c(=O)n(C(C)(C)C)c(=O)c1Cl ?
y

What was the test verdict on CC(C)(C)C(O)C(Oc1ccc(Cl)cc1)n1cncn1 (centres undefined) ?
n

What was the test verdict on N#CN ?
n

What was the test verdict on COP(=S)(OC)Oc1ccc(SC)c(C)c1 ?
n

What was the test verdict on C#CCN1C(=O)COc2cc(F)c(N3C(=O)C4=C(CCCC4)C3=O)cc21 ?
n

What was the test verdict on O=S1OCC2C(CO1)C1(Cl)C(Cl)=C(Cl)C2(Cl)C1(Cl)Cl (centres undefined) ?
y

What was the test verdict on CC1(C)C(C=C(Cl)Cl)C1C(=O)OC(C#N)c1ccc(F)c(Oc2ccccc2)c1 (centres undefined) ?
n

What was the test verdict on CCCN(CCOc1c(Cl)cc(Cl)cc1Cl)C(=O)n1ccnc1 ?
y

What was the test verdict on CNC(=O)Oc1cccc(N=CN(C)C)c1 ?
n

What was the test verdict on Clc1ccccc1-c1nnc(-c2ccccc2Cl)nn1 ?
n

What was the test verdict on CC(C)(C)C(O)/C(=C\c1ccc(Cl)cc1Cl)n1cncn1 (centres undefined) ?
y

What was the test verdict on CCC(C)Nc1c([N+](=O)[O-])cc(C(C)(C)C)cc1[N+](=O)[O-] (centres undefined) ?
n

What was the test verdict on CC(C)N(C(=O)COc1nnc(C(F)(F)F)s1)c1ccc(F)cc1 ?
n

What was the test verdict on N#Cc1c(Cl)c(Cl)c(Cl)c(C#N)c1Cl ?
y

What was the test verdict on O=C(O)CCCOc1ccc(Cl)cc1Cl ?
n

What was the test verdict on CCC(C)(NC(=O)c1cc(Cl)c(C)c(Cl)c1)C(=O)CCl (centres undefined) ?
y

What was the test verdict on CCOCN(C(=O)CCl)c1c(C)cccc1CC ?
y

What was the test verdict on COc1nn(CSP(=S)(OC)OC)c(=O)s1 ?
n

What was the test verdict on O=C(Nc1ccccc1)Nc1cnns1 ?
y

What was the test verdict on CC[C@H](C)[C@H]1O[C@]2(C=C[C@@H]1C)C[C@@H]1C[C@@H](C/C=C(\C)[C@@H](O[C@H]3C[C@H](OC)[C@@H](O[C@H]4C[C@H](OC)[C@@H](O)[C@H](C)O4)[C@H](C)O3)[C@@H](C)/C=C/C=C3\CO[C@@H]4[C@H](O)C(C)=C[C@@H](C(=O)O1)[C@]34O)O2 (tested in a mixture with another compound) ?
y

What was the test verdict on CCCN(CCC)c1c([N+](=O)[O-])cc(C(F)(F)F)cc1[N+](=O)[O-] ?
n

meta.source: PubChem BioAssay (EPA / NIEHS)
